Experiment: relative equilibrium moisture content in sealed measuring cell (HygroLab, AWVC cell)
Format: physicochemical
Settings: substances dried at 130° C. for 5 hours (sorbitol: 70° C.)
Reported equilibrium moisture values for a set of molecules
Measure: equilibrium moisture

molecule="[Ca+2].[Cl-].[Cl-] [calcium chloride]" assay_result="< 1%"
molecule="O=C([O-])CC(O)(CC(=O)[O-])C(=O)[O-].O=C([O-])CC(O)(CC(=O)[O-])C(=O)[O-].[Mg+2].[Mg+2].[Mg+2] [trimagnesium dicitrate]" assay_result="< 1%"
molecule=OC[C@@H](O)[C@@H](O)[C@H](O)[C@@H](O)CO assay_result=9%
